Tested on: EGFR(L747-E749del, A750P)
experimentSummary: KINOMEscan kinase binding assay
conditionContext: at 1 μM
quantity: % Ctrl (%)
Number in %, nothing else.

For the compound Cc1cc2c([nH]1)/C=C1\C(=O)Nc3c(Cl)cc(cc31)-c1cn(C)nc1COC[C@@H](C)N(C)C2=O [Cpd. 5] , report % Ctrl. 74

For the compound Cc1cc2c([nH]1)/C=C1\C(=O)Nc3ccc(cc31)-c1c(nn(C)c1C)COCCN(C)C2=O [Cpd. 2] , report % Ctrl. 85

For the compound Cc1cc2c([nH]1)/C=C1\C(=O)Nc3ccc(cc31)-c1c(nn(C)c1C)OCCCN(C)C2=O [Cpd. 1] , report % Ctrl. 100

For the compound C[C@@H]1COCc2nn(C)cc2-c2cc(Cl)c3c(c2)/C(=C/c2[nH]ccc2C(=O)N1)C(=O)N3 [Cpd. 4] , report % Ctrl. 75

For the compound Cc1cc2c([nH]1)/C=C1\C(=O)Nc3c(Cl)cc(cc31)-c1cn(C)nc1COC[C@@H](C)NC2=O [Cpd. 3] , report % Ctrl. 90

---

Measured % Ctrl of individual entries
Test system: ABL1(H396P)-nonphosphorylated
experimentSummary: KINOMEscan kinase binding assay
conditionContext: at 1 μM
A complete answer gives the number and then names the unit.

Cc1cc2c([nH]1)/C=C1\C(=O)Nc3c(Cl)cc(cc31)-c1cn(C)nc1COC[C@@H](C)NC2=O [Cpd. 3] ... 100%
Cc1cc2c([nH]1)/C=C1\C(=O)Nc3ccc(cc31)-c1c(nn(C)c1C)COCCN(C)C2=O [Cpd. 2] ... 35%
Cc1cc2c([nH]1)/C=C1\C(=O)Nc3c(Cl)cc(cc31)-c1cn(C)nc1COC[C@@H](C)N(C)C2=O [Cpd. 5] ... 98%

For the compound C[C@@H]1COCc2nn(C)cc2-c2cc(Cl)c3c(c2)/C(=C/c2[nH]ccc2C(=O)N1)C(=O)N3 [Cpd. 4] , report % Ctrl. 82%

For the compound Cc1cc2c([nH]1)/C=C1\C(=O)Nc3ccc(cc31)-c1c(nn(C)c1C)OCCCN(C)C2=O [Cpd. 1] , report % Ctrl. 87%

---

Test system: FLT3(D835Y)
experimentSummary: KINOMEscan kinase binding assay
conditionContext: at 1 μM
Experimental: Kinase binding assays were performed at Eurofins/DiscoveRx using the general KINOMEscan Protocol (Fabian, M. A. et al., “A small molecule-kinase interaction map for clinical kinase inhibitors,” Nat. Biotechnol. 2005, 23(3):329-36). […] The kinase concentration in the eluates was measured by qPCR. […] Dissociation constants (Kds) for test compound-kinase interactions were calculated by measuring the amount of kinase captured on the solid support as a function of the test compound concentration.
quantity: % Ctrl (%)
Number in %, nothing else.

Worked set:
C[C@@H]1COCc2nn(C)cc2-c2cc(Cl)c3c(c2)/C(=C/c2[nH]ccc2C(=O)N1)C(=O)N3 [Cpd. 4] ... 96
Cc1cc2c([nH]1)/C=C1\C(=O)Nc3ccc(cc31)-c1c(nn(C)c1C)COCCN(C)C2=O [Cpd. 2] ... 36
Cc1cc2c([nH]1)/C=C1\C(=O)Nc3ccc(cc31)-c1c(nn(C)c1C)OCCCN(C)C2=O [Cpd. 1] ... 97
Cc1cc2c([nH]1)/C=C1\C(=O)Nc3c(Cl)cc(cc31)-c1cn(C)nc1COC[C@@H](C)NC2=O [Cpd. 3] ... 81

For the compound Cc1cc2c([nH]1)/C=C1\C(=O)Nc3c(Cl)cc(cc31)-c1cn(C)nc1COC[C@@H](C)N(C)C2=O [Cpd. 5] , report % Ctrl. 100

---

Measured % Ctrl of individual entries
System: EGFR(L858R)
experimentSummary: KINOMEscan kinase binding assay
conditionContext: at 1 μM
Number in %, nothing else.

Worked set:
Cc1cc2c([nH]1)/C=C1\C(=O)Nc3c(Cl)cc(cc31)-c1cn(C)nc1COC[C@@H](C)N(C)C2=O ... 90
Cc1cc2c([nH]1)/C=C1\C(=O)Nc3c(Cl)cc(cc31)-c1cn(C)nc1COC[C@@H](C)NC2=O ... 96
C[C@@H]1COCc2nn(C)cc2-c2cc(Cl)c3c(c2)/C(=C/c2[nH]ccc2C(=O)N1)C(=O)N3 ... 95
Cc1cc2c([nH]1)/C=C1\C(=O)Nc3ccc(cc31)-c1c(nn(C)c1C)OCCCN(C)C2=O ... 100

Turning now to a further record.
For the molecule Cc1cc2c([nH]1)/C=C1\C(=O)Nc3ccc(cc31)-c1c(nn(C)c1C)COCCN(C)C2=O , report % Ctrl. 78

---

Measured % Ctrl of individual entries
Tested on: VEGFR2
experimentSummary: KINOMEscan kinase binding assay
conditionContext: at 1 μM
A complete answer gives the number and then names the unit.

Worked set:
Cc1cc2c([nH]1)/C=C1\C(=O)Nc3c(Cl)cc(cc31)-c1cn(C)nc1COC[C@@H](C)NC2=O [Cpd. 3] ... 92%
Cc1cc2c([nH]1)/C=C1\C(=O)Nc3ccc(cc31)-c1c(nn(C)c1C)COCCN(C)C2=O [Cpd. 2] ... 48%
Cc1cc2c([nH]1)/C=C1\C(=O)Nc3ccc(cc31)-c1c(nn(C)c1C)OCCCN(C)C2=O [Cpd. 1] ... 93%

For the compound Cc1cc2c([nH]1)/C=C1\C(=O)Nc3c(Cl)cc(cc31)-c1cn(C)nc1COC[C@@H](C)N(C)C2=O [Cpd. 5] , report % Ctrl. 92%

For the compound C[C@@H]1COCc2nn(C)cc2-c2cc(Cl)c3c(c2)/C(=C/c2[nH]ccc2C(=O)N1)C(=O)N3 [Cpd. 4] , report % Ctrl. 94%

---

Measured % Ctrl of individual entries
System: EGFR(E746-A750del)
experimentSummary: KINOMEscan kinase binding assay
conditionContext: at 1 μM
Number in %, nothing else.

Cc1cc2c([nH]1)/C=C1\C(=O)Nc3ccc(cc31)-c1c(nn(C)c1C)COCCN(C)C2=O [Cpd. 2] ... 100
C[C@@H]1COCc2nn(C)cc2-c2cc(Cl)c3c(c2)/C(=C/c2[nH]ccc2C(=O)N1)C(=O)N3 [Cpd. 4] ... 96
Cc1cc2c([nH]1)/C=C1\C(=O)Nc3c(Cl)cc(cc31)-c1cn(C)nc1COC[C@@H](C)N(C)C2=O [Cpd. 5] ... 95

For the compound Cc1cc2c([nH]1)/C=C1\C(=O)Nc3c(Cl)cc(cc31)-c1cn(C)nc1COC[C@@H](C)NC2=O [Cpd. 3] , report % Ctrl. 98

For the compound Cc1cc2c([nH]1)/C=C1\C(=O)Nc3ccc(cc31)-c1c(nn(C)c1C)OCCCN(C)C2=O [Cpd. 1] , report % Ctrl. 95

---

Measured % Ctrl of individual entries
System: CTK
experimentSummary: KINOMEscan kinase binding assay
conditionContext: at 1 μM

Worked set:
Cc1cc2c([nH]1)/C=C1\C(=O)Nc3c(Cl)cc(cc31)-c1cn(C)nc1COC[C@@H](C)N(C)C2=O ... 84%
Cc1cc2c([nH]1)/C=C1\C(=O)Nc3c(Cl)cc(cc31)-c1cn(C)nc1COC[C@@H](C)NC2=O ... 80%
Cc1cc2c([nH]1)/C=C1\C(=O)Nc3ccc(cc31)-c1c(nn(C)c1C)OCCCN(C)C2=O ... 58%
C[C@@H]1COCc2nn(C)cc2-c2cc(Cl)c3c(c2)/C(=C/c2[nH]ccc2C(=O)N1)C(=O)N3 ... 76%

Turning now to a further record.
For the compound Cc1cc2c([nH]1)/C=C1\C(=O)Nc3ccc(cc31)-c1c(nn(C)c1C)COCCN(C)C2=O , report % Ctrl. 93%

---

Test system: EPHA4
experimentSummary: KINOMEscan kinase binding assay
conditionContext: at 1 μM
Measured % Ctrl of individual entries
Number in %, nothing else.

Worked set:
Cc1cc2c([nH]1)/C=C1\C(=O)Nc3c(Cl)cc(cc31)-c1cn(C)nc1COC[C@@H](C)NC2=O ... 92
Cc1cc2c([nH]1)/C=C1\C(=O)Nc3c(Cl)cc(cc31)-c1cn(C)nc1COC[C@@H](C)N(C)C2=O ... 93
Cc1cc2c([nH]1)/C=C1\C(=O)Nc3ccc(cc31)-c1c(nn(C)c1C)COCCN(C)C2=O ... 100
C[C@@H]1COCc2nn(C)cc2-c2cc(Cl)c3c(c2)/C(=C/c2[nH]ccc2C(=O)N1)C(=O)N3 ... 92

Turning now to a further record.
For the compound Cc1cc2c([nH]1)/C=C1\C(=O)Nc3ccc(cc31)-c1c(nn(C)c1C)OCCCN(C)C2=O , report % Ctrl. 96

---

Tested on: ABL1(F317I)-nonphosphorylated
experimentSummary: KINOMEscan kinase binding assay
conditionContext: at 1 μM
Measured % Ctrl of individual entries
Number in %, nothing else.

Worked set:
C[C@@H]1COCc2nn(C)cc2-c2cc(Cl)c3c(c2)/C(=C/c2[nH]ccc2C(=O)N1)C(=O)N3 ... 95
Cc1cc2c([nH]1)/C=C1\C(=O)Nc3ccc(cc31)-c1c(nn(C)c1C)OCCCN(C)C2=O ... 91
Cc1cc2c([nH]1)/C=C1\C(=O)Nc3c(Cl)cc(cc31)-c1cn(C)nc1COC[C@@H](C)N(C)C2=O ... 90
Cc1cc2c([nH]1)/C=C1\C(=O)Nc3ccc(cc31)-c1c(nn(C)c1C)COCCN(C)C2=O ... 100

Turning now to a further record.
For the compound Cc1cc2c([nH]1)/C=C1\C(=O)Nc3c(Cl)cc(cc31)-c1cn(C)nc1COC[C@@H](C)NC2=O , report % Ctrl. 100
